- assay_protocol: qHTS assay for small molecule agonists of the p53 signaling pathway - cell viability (AID 651633);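 further: p53RE-bla HCT reporter cells with a stable beta-lactamase p53 reporter; on the % scale 0 is the no-effect control and ±100 the full control effect; nearly all actives have a fitted effect of over 30% in size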
- assay_setup: p53RE-bla HCT-116 viability, ATP luminescence, 16 h; series mostly up to 83.3 µM
Results filed as inconclusive are left out. The source made the active and inactive calls. The call rests on the fitted dose curve.
endpoint_label: activity change, negative = cytotoxicity

Some entries whose results are on file:
compound	activity change, negative = cytotoxicity
CCCCCCCCCOCC1CO1 (stereo not given)	inactive
Nc1ccc(S(=O)(=O)NC(=O)c2ccccc2)cc1	inactive
Nc1ccc(/C=C/c2ccc(N)cc2S(=O)(=O)O)c(S(=O)(=O)O)c1	inactive
C=CCOC(=O)c1ccc(C(=O)OCC=C)c(C(=O)OCC=C)c1	inactive
CCCCOC(=O)C(C)OC(=O)CCC (stereo not given)	inactive

Now turn to the next compound.
activity change, negative = cytotoxicity for CCC(C)(C)C1CCC(=O)CC1 is inactive

###

- assay_protocol: qHTS assay to identify small molecule antagonists of the retinoic acid receptor (RAR) signaling pathway (AID 1159552; further: on the % scale 0 is the no-effect control and ±100 the full control effect; nearly all actives have a fitted effect of over 50% in size)
- assay_setup: C3RL4 RARE luciferase reporter, retinol-stimulated, 6 h; series mostly up to 92.4 µM
- Source text: National Center for Advancing Translational Sciences [NCATS] NIH Chemical Genomics Center [NCGC] U.S. Environmental Protection Agency [EPA] National Institutes of Environmental Health Sciences [NIEHS] National Toxicology Program [NTP] U.S. Food and Drug Administration [FDA] […]
Results filed as inconclusive are left out. Calls of active or inactive are those of the source. The call rests on the fitted dose curve; in most records, active means well fitted inhibition curve with a large enough effect in the repeat runs; inconclusive means weak or mixed curves, or effect the other way; inactive means no such curve, though single readings can be large or run the other way.
endpoint_label: activity, negative = inhibition

Recorded activity, negative = inhibition, per entry:
structure_notation	endpoint_label	endpoint_value
CCCCCCCC/C=C\CCCCCCCC(=O)OC[C@@H](O)[C@H]1OC[C@H](O)[C@H]1O	activity, negative = inhibition	inactive
CC(C)=CC(C)(C)C	activity, negative = inhibition	inactive
O=C(O)Cc1cccc(-c2cc(CCCCCCc3ccc(O[C@H]4O[C@H](CO)[C@@H](O)[C@H](O)[C@@H]4O)c(-c4cccc(CC(=O)O)c4)c3)ccc2O[C@H]2O[C@H](CO)[C@@H](O)[C@H](O)[C@@H]2O)c1	activity, negative = inhibition	-0.764% [at 0.349 µM] (inactive)
COc1ccc(NS(=O)(=O)c2ccc(N)cc2)nn1	activity, negative = inhibition	inactive
CCOC(=O)C(=O)c1csc(NC=O)n1	activity, negative = inhibition	inactive
Cn1c(=O)c2c(ncn2CC2OCCO2)n(C)c1=O	activity, negative = inhibition	inactive
Nc1nc(=O)n([C@@H]2O[C@H](CO)[C@@H](O)[C@@H]2F)cc1I	activity, negative = inhibition	inactive

Read the next record carefully.
The measured activity, negative = inhibition associated with Nc1cc(Cl)cc(S(=O)(=O)O)c1O reads inactive

###

- assay_protocol: A CellTox Green Cytotoxicity Assay to monitor cytotoxicity in HepG2 cells - 8 hour (AID 1224890); further: on the % scale 0 is the no-effect control and ±100 the full control effect; nearly all actives have a fitted effect of over 45% in size
- assay_setup: CellTox Green fluorescence; series mostly up to 76.8 µM
Results filed as inconclusive are left out. The source made the active and inactive calls. Calls come from the whole dose curve; as a rule, active = well fitted activation curve with a large enough effect in the repeat runs; inconclusive = weak or mixed curves; inactive = flat fitted curve, though single readings scatter.
endpoint_label: cytotoxicity increase

// worked examples, cytotoxicity increase included
molecule	endpoint_value
O=C(O)Cc1cccc(-c2cc(CCCCCCc3ccc(O[C@H]4O[C@H](CO)[C@@H](O)[C@H](O)[C@@H]4O)c(-c4cccc(CC(=O)O)c4)c3)ccc2O[C@H]2O[C@H](CO)[C@@H](O)[C@H](O)[C@@H]2O)c1	23.5% [at 0.29 µM] (inactive)
CC(=O)/C=C/c1ccco1	inactive
O=P(O)(O)OCC(O)CO (stereo unspecified)	inactive
NS(=O)(=O)c1ccc(Cl)c(S(N)(=O)=O)c1	inactive

Just so you know, measured cytotoxicity increase for O=C(Nc1cccc(C2=NCCN2)c1)Nc1cccc(C2=NCCN2)c1 came out at -10.2% [at 15.8 µM] (inactive)

Entry CCNC(=O)/C=C/c1cccc(Br)c1 — recorded cytotoxicity increase = inactive

// sample CC(C)CCCCCCOC(=O)C1CCCCC1C(=O)OCCCCCCC(C)C (stereo unspecified) , its cytotoxicity increase was inactive

For this molecule ( Cc1cccc(C(=O)O)c1[N+](=O)[O-] ), measured cytotoxicity increase is inactive

Please fill in: cytotoxicity increase reported for Nc1ccc(S(=O)(=O)NC(=O)c2ccccc2)cc1 = inactive

###

- assay_protocol: qHTS RealTime-Glo MT Cell Viability Assay in HEK293 cells - 32 hour (AID 1224868); further: top concentration of the series differs between compounds; on the % scale 0 is the no-effect control and ±100 the full control effect; nearly all actives have a fitted effect of over 50% in size
- assay_setup: RealTime-Glo luminescence; series mostly up to 76.8 µM
Records with an inconclusive call do not appear. The source made the active and inactive calls. Calls come from the whole dose curve; as a rule, active = well fitted cell-killing curve with a large enough effect in the repeat runs; inconclusive = weak or mixed curves, or effect the other way; inactive = flat fitted curve, though single readings scatter.
endpoint_label: activity change, negative = cytotoxic

structure_notation	endpoint_label	endpoint_value
CCC(=O)c1ccc(O)cc1	activity change, negative = cytotoxic	inactive
FC(F)(F)/C(=N\OCC1OCCO1)c1ccc(Cl)cc1	activity change, negative = cytotoxic	inactive
OCCCCCCCl	activity change, negative = cytotoxic	inactive

###

- assay_protocol: qHTS assay to identify small molecule antagonists of the thyroid receptor (TR) signaling pathway (AID 743065); further: on the % scale 0 is the no-effect control and ±100 the full control effect; nearly all actives have a fitted effect of over 55% in size
- assay_setup: GH3.TRE-Luc, T3-stimulated luciferase inhibition, 23.5 h; series mostly up to 70.3 µM
Results filed as inconclusive are left out. Active and inactive are the calls of the source. Calls come from the whole dose curve; as a rule, active = well fitted inhibition curve with a large enough effect in the repeat runs; inconclusive = weak or mixed curves; inactive = no such curve, though single readings can be large or run the other way.
Can you answer with just one of these options? active, inactive

compound	group_label
CCCCOC(=O)[C@@H](C)Oc1ccc(Oc2ccc(C(F)(F)F)cn2)cc1	inactive
O=C(O)/C=C/c1ccccc1	inactive
CCCO	inactive
Cc1nc2ccccc2c(=O)o1	inactive

// switching to the query compound
Hi team, can someone confirm the assay call for CC(=O)Nc1ncc([N+](=O)[O-])s1 ? inactive

###

- assay_protocol: qHTS assay for identifying genotoxic compounds that show differential cytotoxicity against isogenic chicken DT40 cell lines with known DNA damage response pathways - Rev3 mutant cell line (AID 743014); further: nearly all actives have a fitted effect of over 55% in size
- assay_setup: chicken DT40 Rev3-/- viability, CellTiter-Glo, 40 h; series mostly up to 68.4 µM
Results filed as inconclusive are left out. Calls of active or inactive are those of the source. Calls follow the shape of the dose curve; as a rule, active = well fitted cell-killing curve with a large enough effect in the repeat runs; inconclusive = weak or mixed curves, or effect the other way; inactive = no such curve, though single readings can be large or run the other way.
In this exercise, the only acceptable responses are TRUE (active), FALSE (inactive)

compound	group_label
COc1cc2c(Nc3ccc(Br)cc3F)ncnc2cc1OCC1CCN(C)CC1	TRUE

Call for entry C[C@H](CCC(=O)O)[C@H]1CC[C@H]2[C@@H]3[C@H](O)C[C@@H]4C[C@H](O)CC[C@]4(C)[C@H]3C[C@H](O)[C@]12C : FALSE

###

- assay_protocol: qHTS assay for identifying genotoxic compounds that show differential cytotoxicity against isogenic chicken DT40 cell lines with known DNA damage response pathways - Rev3 mutant cell line (AID 743014); further: nearly all actives have a fitted effect of over 55% in size
- assay_setup: chicken DT40 Rev3-/- viability, CellTiter-Glo, 40 h; series mostly up to 68.4 µM
Results filed as inconclusive are left out. The source made the active and inactive calls. The call rests on the fitted dose curve; in most records, active means well fitted cell-killing curve with a large enough effect in the repeat runs; inconclusive means weak or mixed curves, or effect the other way; inactive means no such curve, though single readings can be large or run the other way.
Allowed answers: t = active, f = inactive

Answered cases to consult:
molecule	group_label
C=CC(C)(O)CC/C=C(\C)CC (stereo unspecified)	f
CCOC(=O)C(C)(C)C	f
CO[Si](CCCCl)(OC)OC	f
CCC(=O)c1ccc(O)cc1	f
CCNC(=O)NCCCOc1cccc(CN2CCCCC2)c1	f

Would you kindly look at the next entry?
Hi, do you know how OC[C@@H](O)[C@H](O)[C@@H](O)[C@@H](O)CO came out in this test? f

###

- assay_protocol: qHTS assay to identify small molecule agonists of the farnesoid-X-receptor (FXR) signaling pathway - cell viability counter screen (AID 743218); further: on the % scale 0 is the no-effect control and ±100 the full control effect; nearly all actives have a fitted effect of over 45% in size
- assay_setup: FXR-bla HEK293T viability, CellTiter-Glo luminescence, 16 h; series mostly up to 62.6 µM
Results filed as inconclusive are left out. Active and inactive are the calls of the source. The call rests on the fitted dose curve; in most records, active means well fitted cell-killing curve with a large enough effect in the repeat runs; inconclusive means weak or mixed curves, or effect the other way; inactive means no such curve, though single readings can be large or run the other way.
endpoint_label: viability change, negative = cytotoxic

Field: example entries. Status: answers known.
compound	endpoint_value
CCN1CN(CC)CN(CC)C1	inactive
NC(Cc1c[nH]c2ccccc12)C(=O)O (stereo not drawn)	inactive
CCC(C)N (stereo not drawn)	inactive
CC(=O)N(CC(O)CO)c1c(I)c(C(=O)NCC(O)CO)c(I)c(C(=O)NCC(O)CO)c1I (stereo not drawn)	inactive
Cc1ccc2c(c1)c1c3n2CCNC3CCC1 (stereo not drawn)	inactive

Field viability change, negative = cytotoxic (entry CCCC(C)CC (stereo not drawn) ) reads inactive

Item: C1=CCC(c2ccccc2)CC1 (stereo not drawn) | viability change, negative = cytotoxic: inactive

Form field viability change, negative = cytotoxic, entry O=S1(=O)CCCC1 : inactive

###

- assay_protocol: qHTS assay to identify small molecule agonists of the endoplasmic reticulum stress response signaling pathway - cell viability counter screen (AID 1159517);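 further: HeLa cells carrying an ER stress response element beta-lactamase reporter; on the % scale 0 is the no-effect control and ±100 the full control effect; nearly all actives have a fitted effect of over 50% in size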
- assay_setup: ESRE-bla HeLa viability, CellTiter-Glo luminescence, 5 h; series mostly up to 61 µM
Records with an inconclusive call do not appear. Activity calls are given as the source filed them. Calls come from the whole dose curve.
endpoint_label: activity change, negative = cytotoxicity

compound	activity change, negative = cytotoxicity
CCCCC(CC)CNC(=O)CC(C)OC(=O)CCC(=O)O (configuration not stated)	inactive
CC(C)CCCC(C)CC=O (configuration not stated)	inactive
CC(C)CCC(=O)CCC(C)C	inactive
COc1ccc(NS(=O)(=O)c2ccc(N)cc2)nn1	inactive
Nc1cc(S(=O)(=O)O)ccc1S(=O)(=O)O	inactive

The compound CCCCC(CC)C(=O)OC(C)C (configuration not stated) showed activity change, negative = cytotoxicity equal to inactive

Entry CC(=O)OC[C@H]1O[C@@H](OC(C)=O)[C@H](OC(C)=O)[C@@H]1OC(C)=O , activity change, negative = cytotoxicity reported as inactive
